The entries below are paired with their reported Biodistribution: Muscle.
Assay: Biodistribution of radiotracers in normal mice
Type: in vivo, mouse
Conditions: normal male mice, 30 min
Entry rule: numbers only, all in % dose/g.

| compound | units-label | numeric-result |
| --- | --- | --- |
| O=C(O)CCc1ccc2c(c1)C[N+]13CC[N+]45CC(=O)[O][68Ga-3]14([O]C(=O)C3)([O]2)[O]c1ccc(CCC(=O)NCC(=O)N[C@@H](Cc2ccc(OCC(=O)N[C@@H](Cc3ccccc3)C(=O)NCCCC[C@H](NC(=O)N[C@@H](CCC(=O)O)C(=O)O)C(=O)O)cc2)C(=O)O)cc1C5 (some centres unmarked) [[^68Ga]5b] | % dose/g | 0.67 |
| O=C(O)CCc1ccc2c(n1)C[N+]13CC[N+]45CC(=O)[O][68Ga-3]14([O]C(=O)C3)([O]2)[O]c1ccc(CCC(=O)NCCCCCC(=O)NCCCC[C@H](NC(=O)N[C@@H](CCC(=O)O)C(=O)O)C(=O)O)nc1C5 (some centres unmarked) [[^68Ga]2] | % dose/g | 0.46 |
| O=C(O)CC[C@H](NC(=O)N[C@@H](CCCCNC(=O)CCCCCNC(=O)CCc1ccc2c(c1)C[N+]13CC[N+]45CC(=O)[O][68Ga-3]14([O]C(=O)C3)([O]2)[O]c1ccc(CCC(=O)NCCNC(=O)CN2CCN(CC(=O)O)CCN(CC(=O)O)CCN(CC(=O)O)CC2)cc1C5)C(=O)O)C(=O)O (some centres unmarked) [[^68Ga]1g] | % dose/g | 0.48 |
| O=C(O)CCc1ccc2c(c1)C[N+]13CC[N+]45CC(=O)[O][68Ga-3]14([O]C(=O)C3)([O]2)[O]c1ccc(CCC(=O)NCCCCCC(=O)NCCCC[C@H](NC(=O)N[C@@H](CCC(=O)O)C(=O)O)C(=O)O)cc1C5 (some centres unmarked) [[^68Ga]1a, reference compound] | % dose/g | 0.32 |

# next compound below
Looking up O=C(O)CC[C@H](NC(=O)N[C@@H](CCCCNC(=O)CCCCCNC(=O)CCc1ccc2c(n1)C[N+]13CC[N+]45CC(=O)[O][68Ga-3]14([O]C(=O)C3)([O]2)[O]c1ccc(CCC(=O)NCCCCCC(=O)NCCCC[C@H](NC(=O)N[C@@H](CCC(=O)O)C(=O)O)C(=O)O)nc1C5)C(=O)O)C(=O)O (some centres unmarked) [[^68Ga]3] , I see its Biodistribution: Muscle listed as 1.53
